study system: BRD4 BD2 (Homo sapiens, UniProt O60885)
Construct: made in house
procedure details: AlphaScreen binding assay, BRD4 Bromodomain 2
reported endpoint: IC50

Lookup: Missing value: IC50, BRD4 BD2 (Homo sapiens, UniProt O60885), entry CC(=O)N1c2ccc(-c3ncco3)cc2N(C(=O)c2ccco2)C[C@@H]1C . Fill in?
Found: 50 to 500 nM

Lookup: Missing value: IC50, BRD4 BD2 (Homo sapiens, UniProt O60885), entry CC(=O)N1c2ccc(-c3cnn(CCO)c3)cc2N(C(=O)N(C)c2ccccc2)C[C@@H]1C . Fill in?
Found: > 500 nM

Lookup: Missing value: IC50, BRD4 BD2 (Homo sapiens, UniProt O60885), entry CC(=O)N1c2ccc(-c3cnn(CCn4ccnc4)c3)cc2N(C(=O)OC(C)C)C[C@@H]1C . Fill in?
Found: 50 to 500 nM

Lookup: Missing value: IC50, BRD4 BD2 (Homo sapiens, UniProt O60885), entry CC(=O)N1c2cc(C(N)=O)c(-c3cnn(C4CC4)c3)cc2N(C(=O)OC(C)C)C[C@@H]1C . Fill in?
Found: 50 to 500 nM

Lookup: Missing value: IC50, BRD4 BD2 (Homo sapiens, UniProt O60885), entry CC(=O)N1c2ccc(-c3cnn(C4COC4)c3)cc2N(C(=O)OCCC(F)(F)F)C[C@@H]1C . Fill in?
Found: < 50 nM

Lookup: Missing value: IC50, BRD4 BD2 (Homo sapiens, UniProt O60885), entry CC(=O)N1c2ccc(-c3cnn(C4COC4)c3)cc2N(C(=O)OC2CC3(COC3)C2)C[C@@H]1C . Fill in?
Found: > 500 nM

Lookup: Missing value: IC50, BRD4 BD2 (Homo sapiens, UniProt O60885), entry CC(=O)N1c2ccc(-c3ccc4c(c3)OCO4)cc2N(C(=O)c2ccco2)C[C@@H]1C . Fill in?
Found: 50 to 500 nM
